- Tested on: NCI-H460 lung
- test details: NCI tumour cell line growth inhibition, 48 h
# reported TGI; entries follow
metric: TGI

compound=O=c1c2cc(I)ccc2nc(Sc2ncccc2[N+](=O)[O-])n1Cc1ccccc1 assayed_system="NCI-H460 lung" metric=TGI observed_measurement="> 100 µM"
compound=Nc1ccccc1N/C=C\C(=O)C(Cl)(Cl)Cl assayed_system="NCI-H460 lung" metric=TGI observed_measurement="> 100 µM"
compound="CSC1=C(C#N)C(=O)N(c2ccc(C)cc2)C(=S)C1C#N (centres undefined)" assayed_system="NCI-H460 lung" metric=TGI observed_measurement="> 100 µM"
compound="C1CCC(OC2CSC2)OC1 (centres undefined)" assayed_system="NCI-H460 lung" metric=TGI observed_measurement="> 100 µM"
compound=O=c1[nH]c(=O)n(Cc2ccccc2CO)cc1Sc1ccccc1 assayed_system="NCI-H460 lung" metric=TGI observed_measurement="> 100 µM"
compound=NCCNc1cccc2ccccc12 assayed_system="NCI-H460 lung" metric=TGI observed_measurement="> 100 µM"
compound="N#CC1=C(N)NC(=O)NC12Nc1ccccc1S2 (centres undefined)" assayed_system="NCI-H460 lung" metric=TGI observed_measurement="> 70.9 µM"
compound="O=C(O)c1ccc(N/C=C2\\C(=O)c3ccccc3OC2O)cc1O (centres undefined)" assayed_system="NCI-H460 lung" metric=TGI observed_measurement="78.3 µg/mL"
compound="CCCNC(C#N)c1ccc(C(C#N)NCCC)cc1 (centres undefined)" assayed_system="NCI-H460 lung" metric=TGI observed_measurement="> 100 µM"
compound=Cc1cc(C)c(O)c(CN(C)Cc2cc(Cl)cc(Cl)c2O)c1 assayed_system="NCI-H460 lung" metric=TGI observed_measurement="13.7 µM"
compound=O=c1cc(N2CCCC2)[nH]c(=O)n1-c1cccc(C(F)(F)F)c1 assayed_system="NCI-H460 lung" metric=TGI observed_measurement="> 100 µM"
compound=C/C(=N\N=C(/[Se])N1CC2CCC(CC2)C1)c1ccccn1 assayed_system="NCI-H460 lung" metric=TGI observed_measurement="2.61 µM"
compound=Cc1ccc(N2CCc3c(C)c(C#N)c4nc5ccccc5n4c32)cc1 assayed_system="NCI-H460 lung" metric=TGI observed_measurement="> 100 µM"
compound=O=S1(=O)c2ccccc2C(=NO)c2ccccc21 assayed_system="NCI-H460 lung" metric=TGI observed_measurement="> 100 µM"
compound=N#Cc1c(N2CCCC2)ncn(Cc2ccccc2)c1=O assayed_system="NCI-H460 lung" metric=TGI observed_measurement="> 100 µM"
compound=Fc1ccc(N=NN2CCCC2)cc1 assayed_system="NCI-H460 lung" metric=TGI observed_measurement="> 100 µM"
compound="COC(=O)C1(F)C(=O)NC(=O)NC1O (centres undefined)" assayed_system="NCI-H460 lung" metric=TGI observed_measurement="> 100 µM"
compound=CN(C)Cc1cc(O)c(O)c(CN(C)C)c1 assayed_system="NCI-H460 lung" metric=TGI observed_measurement="52.5 µM"
compound=O=C1C=C(Br)c2c(Br)sc(Br)c21 assayed_system="NCI-H460 lung" metric=TGI observed_measurement="> 61.8 µM"
compound="COc1cc2c(cc1O)CC13CCC(=O)N1CCc1cc(OC)c(O)c-2c13 (centres undefined)" assayed_system="NCI-H460 lung" metric=TGI observed_measurement="> 68.1 µM"
compound="COc1cccc2c1C(=O)c1c(O)c3c(c(O)c1C2=O)C[C@@](O)(C(=O)CO)C[C@@H]3OC1C[C@H](N)[C@H](O)[C@H](C)O1 (some centres undefined)" assayed_system="NCI-H460 lung" metric=TGI observed_measurement="> 50 µM"
compound="Cc1cccc(NC(=O)C(=O)C(C(=O)c2ccccc2F)C2OC(=O)c3ccccc32)c1Cl (centres undefined)" assayed_system="NCI-H460 lung" metric=TGI observed_measurement="> 100 µM"
compound=COc1cccc(N(CN2CC=CC2=O)C(C)=O)c1 assayed_system="NCI-H460 lung" metric=TGI observed_measurement="> 100 µM"
compound=COc1ccccc1C#Cc1ccccc1C#CCCCCCC#Cc1ccccc1C#Cc1ccccc1OC assayed_system="NCI-H460 lung" metric=TGI observed_measurement="> 100 µM"

These entries and their values trace back to PubChem BioAssay (NCI).
